System: human colorectal cancer HCT116 cells
ASSAY NOTES: Inhibitory effect on growth of human cancer cells (in vitro), WST-8
Format: cell-based
EXPERIMENTAL PARAMETERS: 96 hours culture

SMILES TEXT | IC50, nM
CCn1nnc(-c2[nH]c(C)c(C(=O)c3cccc(OCCN)c3)c2C)n1 | 40.2

----------
Tested on: human colorectal cancer HCT116 cells
ASSAY NOTES: Inhibitory effect on growth of human cancer cells (in vitro), WST-8
Assay type: cell-based
EXPERIMENTAL PARAMETERS: Homo sapiens, HCT-116, 96 h, 96 hours culture
Reported IC50 by item:
PROPERTY MEASURED: IC50 (nM)

SMILES TEXT | UNIT ABBREV | RECORDED VALUE
Cc1[nH]c(-c2nnc(CO)o2)c(C)c1C(=O)c1cc(Br)ccc1O | nM | 152
CNC(=O)c1[nH]c(-c2nnn(CCO)n2)c(C)c1C(=O)c1ccc(OC)c(Br)c1 | nM | 219
COc1ccc(C(=O)c2c(CCl)[nH]c(-c3nnn(CCOC(C)=O)n3)c2C)cc1Br | nM | 36.9
COc1ccc(Br)cc1C(=O)c1c(C)[nH]c(-c2nnc(C3CC3)o2)c1C | nM | 1.9
CCc1cnc(-c2[nH]c(C)c(C(=O)c3cccc(Br)c3)c2C)o1 | nM | 48.4
Cc1[nH]c(-c2nnc(C3CC3)o2)c(C)c1C(=O)c1ccc(OCCN(C)C)c(Br)c1 | nM | 865
CCc1nnc(-c2c(C)c(C(=O)c3cccc(Br)c3)c(C)n2S(=O)(=O)C2CC2)o1 | nM | 447
COc1ccc(C(=O)c2c(C)[nH]c(-c3nnn(CCO)n3)c2C)cc1Br | nM | 14.2

----------
Tested on: human colorectal cancer HT-29 cells
ASSAY NOTES: Inhibitory effect on growth of human cancer cells (in vitro), WST-8
Assay type: cell-based
EXPERIMENTAL PARAMETERS: 96 hours culture, hydrochloride, read-out: IC50 (nM) HT29
Counter-ions that a name gives are not always drawn.
PROPERTY MEASURED: IC50 (nM)

MOLECULE | UNIT ABBREV | RECORDED VALUE
CCn1nnc(-c2[nH]c(C)c(C(=O)c3ccc(OCCN)c(Br)c3)c2C)n1 [Compound 302, hydrochloride] | nM | 33
Cc1[nH]c(-c2nnn(CCOC(=O)CN)n2)c(C)c1C(=O)c1cccc(Br)c1 [Compound 297, hydrochloride] | nM | 8.2
CCn1nnc(-c2[nH]c(C)c(C(=O)c3cccc(OCCN)c3)c2C)n1 [Compound 296, hydrochloride] | nM | 198

----------
Tested on: human colorectal cancer HCT116 cells
ASSAY NOTES: Inhibitory effect on growth of human cancer cells (in vitro), WST-8
Format: cell-based
EXPERIMENTAL PARAMETERS: Homo sapiens, HCT-116, 96 h, 96 hours culture
PROPERTY MEASURED: IC50 (nM)

SMILES TEXT | TARGET | PROPERTY MEASURED | UNIT ABBREV | RECORDED VALUE
Cc1[nH]c(-c2nnc(C3CC3)o2)c(C)c1C(=O)c1cccc(OCCN)c1 | human colorectal cancer HCT116 cells | IC50 | nM | 45.2
Cc1[nH]c(-c2nnc(C3CC3)o2)c(C)c1C(=O)c1cccc([N+](=O)[O-])c1 | human colorectal cancer HCT116 cells | IC50 | nM | 5.5
CNC(=O)c1[nH]c(-c2nnn(CCN)n2)c(C)c1C(=O)c1cccc(Br)c1 | human colorectal cancer HCT116 cells | IC50 | nM | 754
COc1ccc(C(=O)c2c(C3SCCCS3)[nH]c(-c3nnc(C4CC4)o3)c2C)cc1Br | human colorectal cancer HCT116 cells | IC50 | nM | 902

Data origin: patent US20140343017A1
